Reference source: the EternaBench riboswitch data

Tested on: MS2 coat protein
Test: apparent Kd, MS2 coat protein; higher = weaker binding; RNA-MaP array; FMN 200 µM where present
Conditions: ligand present: flavin mononucleotide; designed as: OFF switch for flavin mononucleotide
I'd be grateful if you could share measured apparent Kd for these entries.
Answers are plain numbers, in nM.

- sequence.input: "CUUAAACAUGAGGAUCACCCAUGUCAGGAUAUGAUACUAUGUACUUCGGUACAUAGUAUCAGAAGGGAUAUAAA"
  quantitative.result: 33.5
- sequence.input: "GAGCGAAAGCUCAAUGUCGAUAGCAGAAGGACAUCCAACAACAUGAAAACAUGAGGAUCACCCAUGUAGGAUAUGCUAUCGACU"
  quantitative.result: 7.4
- sequence.input: "UCGAACGGAAAUAAAGUAAAUAGACAUGAGGAUCACCCAUGUAAGGAUAUGCCUACUAAAAGUAGGCAGAAGGUACGCGUUCGA"
  quantitative.result: 19.2

The following sequences each have a reported value; give each one's apparent Kd.
1. GAGAUGUGAGGAUAUCUAGACCGCGGCAGAGCUGCGGUCCGAGAGAAGGCACAUGAGGAUCACCCAUGUGAUGA
2. UAUAUAAUUAAGAGCUGGAACUCAACAUGAGGAUCACCCAUGUAGGAUAUCAGCACGAUAAGUGCUGAGAAGGACAUCCAGCUC

Solution:
[207, 17.8]

The following sequences each have a reported value; give each one's apparent Kd.
1. GUUGUGUGAGGAUAUGCCUGGCCGUGUGGCCGGAUUGGGUGGCAGAAGGUACAUGAGGAUCACCCAUGUACGGG
2. CAUGUUAUACAGGAUAUCCGUAUGUAAUUCGUCGGAGAAGGGUAUACAUGAGGAUCACCCAUGUAUUCCUAGCU

Solution:
1. 70
2. 20.8
